SYSTEM: T1, anchored ILT2 D2 domain protein (human)
T1 construct: on CHO cells; the entry includes leader remnant, V5 tag and CD24 GPI anchor signal
T1 sequence (chain, as listed by the source limits assumed): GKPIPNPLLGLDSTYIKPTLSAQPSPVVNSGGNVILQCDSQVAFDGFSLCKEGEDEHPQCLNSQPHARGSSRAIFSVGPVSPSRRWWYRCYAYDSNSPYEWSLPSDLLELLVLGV
ASSAY EXPLANATION: flow cytometry, CHO cells with anchored ILT2 domain proteins
VALUE KIND: binding result

Consider the following illustrative entries.
| BINDER | binding result |
| --- | --- |
| 1E4C (antibody, human IgG1, V domains shown) VH: QRELQQSGPELVKPGASVNISCKASGYSFTNHYINWVKQRPGQGLEWIGWIFPGNGDTNYNEKFKGKATLTADTSSSTAYMQLSSLTSEDSAVYFCARTWNYDARWGYWGQGTTVTVSS VL: DVVMTQTPAFLAVSLGQRATISCRASESIDSYGISFMHWYQQKPGQPPKVLIYRTSNLESGIPARFSGSGSRTDFTLTINPVEADDVATYYCQQSNEDPFTFGSGTKLEIK | no binding |
| 1A9 (antibody, human IgG1, V domains shown) VH: EVKLQQSGPDLVKPGASVKISCKASGYSFTNFYIHWVKQRPGQGLEWIGWIFPGNGETNYSEKFKGKATLTADTSSSTAYMQFNSLTYEDSAVYFCARTWNYDARWGYWGQGTTLTVSS VL: DVVMTQTPASLAVSLGQRATISCRASDGIDSYGISFMRWYQQKPGQPPTLLIYRASTLESGIPARFSGSGSRTNFTLTINPVEADDVATYYCQQTNEDPFTFGSGTKLEIK | no binding |
| 26D8 (antibody, human IgG1, V domains shown) VH: QVQLQQSGAELVKPGASVKLSCKASGYTFTEHTIHWIKQRSGQGLEWIGWFYPGSGSMKYNEKFKDKATLTADKSSSTVYMELTRLTSEDSAVYFCARHTNWDFDYWGQGTTLTVSS VL: DIVLTQSPASLAVSLGQRATISCKASQSVDYGGDSYMNWYQQKPGQPPKLLIYAASNLESGIPARFSGSGSGTDLTLNIHPVEEDDAAMYYCQQSNEEPWTFGGGTKLEIK | no binding |
| 3A7A (antibody, human IgG1, V domains shown) VH: QVQLKESGPELVKPGTSVKISCKASGYNFRNYYIQWVKQRPGQGLEWIGWIFPGNNETNYNEKFKGKATLSADTSSTTAYMQLSSLTSEDSAVYFCARSWNYDARWGYWGQGTTVTVSS VL: DVVMTQTPASLAVSLGQRATISCRASEIIDNYGISFIHWYQQKPGQPPKLLIYRASNLESGIPARFSGSGSRTDSTLTINPVGADDVATYYCQQSNEDPFTFGSGTKLELK | no binding |

Now look at this one.
Per the record, 3H5 (antibody, human IgG1, V domains shown) VH: QVQLKESGPGLVAPSQSLSITCTVSGFSLTSYGVSWVRQPPGKGLEWLGVIWGDGSTNYHSALISRLSISKDNSKSQVFLKLNSLQTDDTATYYCAKPRWDDYAMDYWGQGTSVTVSS VL: DIQMTQTTSSLSASLGDRVTISCRASQDISNYLNWYQQKPDGTVKLLIYYTSRLHSGVPSRFSGSGSGTDYSLTISNLEQEDIATYFCQQGNTLWTFGGGTKLEIK has binding result of no binding
